- procedure-text: Drug level in Sprague-Dawley rat at 15 mg/kg, po measured after 72 hrs post dose by LC-MS/MS analysis
- Format: ADME, organism-based
- protocol-conditions: in vivo, read-out: Drug uptake
quantity-name: concentration at 72 h (ng/mL)
Value expressed in ng/mL; do not type the unit.

INPUT: What value of concentration at 72 h has been recorded for this entry: "CN(C)CCN(C)c1ccc(C#N)c(CN2CCN(c3ccc(Cl)cc3)CC2)c1"
OUTPUT: 13.7

* * *

- procedure-text: Half life in beagle dog at 15 mg/kg, po measured after 0.08 to 72 hrs post dose by LC-MS/MS analysis
- Assay type: ADME, organism-based, Canis lupus familiaris
- protocol-conditions: in vivo
quantity-name: half-life (h)
Answer format: numeric, h implied, no suffix.

INPUT: Report half-life for "CN(C)CCN(C)c1ccc(C#N)c(CN2CCN(c3ccc(Cl)cc3)CC2)c1" please.
OUTPUT: 12.7

Origin of values: ChEMBL document CHEMBL4613269
